Assay System: Microtubule-associated protein tau (Homo sapiens)
Sequence (P10636 whole entry, the tested form may be a part): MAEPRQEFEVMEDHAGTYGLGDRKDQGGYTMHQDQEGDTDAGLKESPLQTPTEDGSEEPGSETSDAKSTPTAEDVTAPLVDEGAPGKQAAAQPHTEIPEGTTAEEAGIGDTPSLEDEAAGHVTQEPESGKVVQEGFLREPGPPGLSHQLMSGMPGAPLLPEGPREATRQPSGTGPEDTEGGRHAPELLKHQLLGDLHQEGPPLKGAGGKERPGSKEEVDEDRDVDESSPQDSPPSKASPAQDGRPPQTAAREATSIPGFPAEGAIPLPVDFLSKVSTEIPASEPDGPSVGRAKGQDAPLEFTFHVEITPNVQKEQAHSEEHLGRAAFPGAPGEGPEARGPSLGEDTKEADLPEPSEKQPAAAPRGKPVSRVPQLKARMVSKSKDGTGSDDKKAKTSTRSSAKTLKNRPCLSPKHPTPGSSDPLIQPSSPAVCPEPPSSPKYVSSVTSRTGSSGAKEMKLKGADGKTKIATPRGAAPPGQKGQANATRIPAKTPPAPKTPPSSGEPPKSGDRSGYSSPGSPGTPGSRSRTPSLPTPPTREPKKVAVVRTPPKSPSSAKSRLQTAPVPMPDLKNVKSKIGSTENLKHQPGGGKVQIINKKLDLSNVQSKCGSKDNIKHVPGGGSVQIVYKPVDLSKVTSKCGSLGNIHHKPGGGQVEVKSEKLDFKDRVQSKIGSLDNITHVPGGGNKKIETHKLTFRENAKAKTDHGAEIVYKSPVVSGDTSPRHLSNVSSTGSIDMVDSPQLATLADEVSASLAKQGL
Method: Inhibition of recombinant human TAU three-repeat microtubule-binding domain aggregation expressed in Escherichia coli after 16 hrs by thioflavin T fluorescence assay
pIC50: −log10 of the molar value.
Measured Parameter: pIC50

> print(dat)
                                 chem.smiles  measured.number
 1  COc1ccc(/C=C/C(=O)CC(=O)/C=C/c2ccc(O)c(OC)c2)c(O)c1             5.85
 2  COc1cc(/C=C/C(=O)CC(=O)/C=C/c2ccccc2)ccc1O             5.85
 3  COc1cc(/C=C/C(=O)CC(=O)/C=C/c2ccc(O)cc2OC)ccc1O             6.24
 4  COc1cc(/C=C/C(=O)CC(=O)/C=C/c2ccco2)ccc1O             5.70
 5  COc1cc(/C=C/C(=O)CC(=O)/C=C/c2cccc(OC)c2O)ccc1O             6.16
 6  COc1cc(O)ccc1/C=C/C(=O)CC(=O)/C=C/c1ccc2cc[nH]c2c1             6.64
 7  COc1cc(OCc2ccccn2)ccc1/C=C/C(=O)CC(=O)/C=C/c1ccc2cc[nH]c2c1             6.48
 8  COc1cc(/C=C/C(=O)CC(=O)/C=C/c2ccc3ccccc3c2)ccc1O             6.38
 9  COc1cc(O)cc(/C=C/C(=O)CC(=O)/C=C/c2ccc(O)c(OC)c2)c1             6.49
10  COc1ccc(/C=C/C(=O)CC(=O)/C=C/c2ccc3cc[nH]c3c2)c(OC)c1             6.15
